Exercise: for every item that follows, state its recorded IC50.
Tested on: HIV-1 (NL4-3 strain)
Assay Text: ViKinG (Viral Kinetics GFP Reporter) assay for inhibition of HIV replication
Type: cell-based
Condition Set: Human immunodeficiency virus 1, NL43; MT4-GFP cells infected with HIV-1 NL4-3; RPMI + 10% or 50% NHS (not given); infected cells at 48 h / 24 h
Structures can show the parent of a compound that is named as a salt.
Answers are plain numbers, in nM.

[[record]]
compound = "O=C1c2c(O)c(=O)c3c(n2CCN1Cc1ccc(F)c(Cl)c1)COCCC3 [Compound 1]"
result_value = 347

[[record]]
compound = "CC(C)c1c(CN)n2c(c(O)c1=O)C(=O)N(Cc1ccc(F)c(Cl)c1)CC2 [Compound 32, trifluoroacetate salt]"
result_value = 151

[[record]]
compound = "CN1C/C=C\\Cc2c(n3c(c(O)c2=O)C(=O)N(Cc2ccc(F)c(Cl)c2)CC3)C1=O [Compound 23]"
result_value = 273

[[record]]
compound = "CC(C)C1COCc2c1c(=O)c(O)c1n2CCN(Cc2ccc(F)cc2)C1=O (centres unmarked) [Compound 27]"
result_value = 672

[[record]]
compound = "CCC1COCc2c1c(=O)c(O)c1n2CCN(Cc2ccc(F)cc2)C1=O (centres unmarked) [Compound 6]"
result_value = 492

[[record]]
compound = "CCc1cn(C)c(=O)c2c1c(=O)c(O)c1n2CCN(Cc2ccc(F)c(Cl)c2)C1=O [Compound 24]"
result_value = 1120


Note: attention shifts to another entry.
Given item C=C1CCOCc2c1c(=O)c(O)c1n2CCN(Cc2ccc(F)c(Cl)c2)C1=O [Compound 28] , the value recorded as its IC50 is 503
